// data source = ChEMBL document CHEMBL1201862

In this section we review reported GI50 values for a set of compounds.
- Tested on: MOLT-4
- measurement notes: NCI tumour cell line growth inhibition, 48 h
Active and inactive are the calls of the source. No stated cut-off is given here; in the data, active = GI50 up to about 1.1 µM and inactive = higher.

compound | system name | GI50
C#CCn1ncc2c(SC)ncnc21 | MOLT-4 | > 100 µM (inactive)

Exercise: What GI50 value was documented for this compound, "CCOC(=O)c1c(OCC)[nH]c(=O)c(C(c2cccs2)c2c(O)c(C(=O)OCC)c(OCC)[nH]c2=O)c1O" ?
Solution: 6.47 µM (inactive)

Exercise: Next: "C=C1C(=O)O[C@H]2[C@@H]3O[C@@](C)(CC/C=C(\C)CCC[C@@H]2C)[C@H](O)C[C@@H]13"
Solution: 3.08 µM (inactive)

Exercise: Same read-out for Clc1cc2ncn(C3CCCCO3)c2cc1Cl (stereo not given) ?
Solution: 33.9 µM (inactive)

Exercise: "C=C(Br)CN(C(C)=O)C1CCCCC1" ?
Solution: > 100 µM (inactive)

Exercise: // query: "Nc1cc2c3c(cccc3c1)C(=O)N(c1ccc(OCCN3CCCCC3)cc1)C2=O"
Solution: 12.1 µM (inactive)

Exercise: Further, for NC1=NC(c2ccccc2)CC(c2cc(Cl)ccc2O)=N1 (stereo not given) ?
Solution: 14.2 µM (inactive)

Exercise: Same for Cc1ccccc1OC(C)C(=O)NN1C(=O)CC(=O)N(c2ccc(Cl)cc2)C1=S (stereo not given)
Solution: 30.5 µM (inactive)

Exercise: Next record, please: "CN(C)c1nc(Cl)c2c(-c3ccccc3)c(-c3ccccc3)oc2n1"
Solution: 32.2 µM (inactive)

Exercise: Then CCCCC(Sc1cc(Cl)c(C)cc1S(=O)(=O)Nc1nc(N)n[nH]1)C(=O)OC (stereo not given) ?
Solution: > 10 µM (inactive)

====

- Test system: OVCAR-3
- measurement notes: NCI tumour cell line growth inhibition, 48 h
The source made the active and inactive calls. Rule as the data show it: active = GI50 up to about 1.1 µM and inactive = higher.
The reply should be one of these categories: 1 = active, 0 = inactive

Exercise: Recorded call for "C[C@H]1COC2=C1C(=O)C(=O)c1c2ccc2c1CCCC2(C)C" ?
Solution: 1

Exercise: Check "O=C1N=C2N=C(c3ccc(Cl)cc3)N(c3ccc(Cl)cc3)N2Sc2ccccc21" too.
Solution: 0

Exercise: What about this compound? "S=c1c2cc(I)ccc2nc(S)n1Cc1ccccc1"
Solution: 0

====

- System: RPMI-8226
- measurement notes: NCI tumour cell line growth inhibition, 48 h
Activity calls are given as the source filed them. Rule as the data show it: active = GI50 up to about 1.1 µM and inactive = higher.
One label from this list, please: active, inactive

Solved cases below.
compound | system name | answer label
N=C(N)Nc1ccc(CC(N)C(=O)O)cc1 (centres undefined) | RPMI-8226 | inactive
COc1ccc(-c2cc(O)c3cc4c(cc3n2)OCO4)cc1 | RPMI-8226 | inactive
Cn1c(=O)c(C(=O)Nc2nc(C34CC5CC(CC(C5)C3)C4)cs2)c(O)c2ccccc21 | RPMI-8226 | inactive
O=c1[nH]n(CCc2ccccc2CCl)c2ccc([N+](=O)[O-])cc12 | RPMI-8226 | inactive
Cc1ccc(S(=O)(=O)OC2C3OC(C)(C)OC3OC2C(c2cc(O)c3c(c2O)C(=O)c2ccccc2C3=O)c2cc(O)c3c(c2O)C(=O)c2ccccc2C3=O)cc1 (centres undefined) | RPMI-8226 | inactive

Exercise: I'd appreciate the recorded outcome for COC1(C)OC[C@@]2(C)OC(C)C1(C)C2O[Si](C(C)C)(C(C)C)C(C)C (some centres undefined) from this test.
Solution: inactive

Exercise: Now this one: CCCCOP1(=O)C=C(C)C(=C(Cl)Cl)C(C)=C1 (centres undefined)
Solution: inactive

Exercise: Subsequent entry: C/C(=C/CC[C@]1(CO)CC[C@]2(C)[C@H](CC[C@@H]3[C@@]4(C)CC[C@H](OC5OC(CO)C(O)C(O)C5OC5OC(CO)C(O)C(O)C5O)C(C)(C)[C@@H]4CC[C@]32C)[C@H]1O)CO (some centres undefined)
Solution: inactive

Exercise: Can you handle "C[n+]1ccccc1/C1=c2\cc/c([nH]2)=C(\c2cccc[n+]2C)C2=N/C(=C(/c3cccc[n+]3C)C3C=CC(N3)/C(c3cccc[n+]3C)=C3/C=CC1=N3)C=C2" next?
Solution: inactive

Exercise: Ok, now "Nc1nc(Cl)cc(NCCCNc2cc(Cl)nc(N)n2)n1"
Solution: inactive
